IC50, UniProt Q15569, per-entry values.
Sequence (Q15569 whole entry): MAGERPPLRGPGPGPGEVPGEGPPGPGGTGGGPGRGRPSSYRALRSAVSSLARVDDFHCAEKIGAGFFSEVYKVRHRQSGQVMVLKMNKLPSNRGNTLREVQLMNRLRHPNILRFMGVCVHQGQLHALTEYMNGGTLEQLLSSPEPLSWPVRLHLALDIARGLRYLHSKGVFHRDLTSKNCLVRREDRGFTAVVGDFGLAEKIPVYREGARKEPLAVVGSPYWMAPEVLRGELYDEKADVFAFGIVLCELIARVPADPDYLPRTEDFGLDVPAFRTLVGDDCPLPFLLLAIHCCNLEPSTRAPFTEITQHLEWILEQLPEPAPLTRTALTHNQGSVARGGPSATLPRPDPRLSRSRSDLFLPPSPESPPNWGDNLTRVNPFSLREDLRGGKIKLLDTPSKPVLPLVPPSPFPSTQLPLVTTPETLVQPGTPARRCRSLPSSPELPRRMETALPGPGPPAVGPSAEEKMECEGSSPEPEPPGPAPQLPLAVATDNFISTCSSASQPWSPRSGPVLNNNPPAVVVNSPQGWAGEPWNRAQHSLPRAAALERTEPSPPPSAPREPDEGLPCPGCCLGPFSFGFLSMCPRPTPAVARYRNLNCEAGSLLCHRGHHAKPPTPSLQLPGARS

CCCNc1ncc(-c2cc(-c3ccc(OC(CC)CC)cc3C)nc(-c3cnccn3)n2)s1
> 30 µM
CCCNc1ncc(-c2cc(-c3ccc(OC(CC)CC)cc3Cl)nc(-c3cnccn3)n2)s1
> 30 µM
CCCNc1ncc(-c2cc(-c3c(Cl)cc(OC4CCCC4)cc3Cl)nc(-c3cnccn3)n2)s1
> 30 µM

Given the compound `CCC(CC)Oc1cc(C)c(-c2cc(-c3cnc(NC(=O)OC)s3)nc(-c3cnccn3)n2)c(C)c1` , what is its reported IC50? > 30 µM

Given the compound `CNC(=O)Nc1ncc(-c2cc(-c3c(C)cc(OC)cc3C)nc(-c3cnccn3)n2)s1` , what is its reported IC50? 1.13 µM

Given the compound `CCCNc1ncc(-c2cc(-c3ccc(OC)cc3Cl)nc(-c3cnccn3)n2)s1` , what is its reported IC50? > 30 µM

Given the compound `COc1cc(Cl)c(-c2cc(-c3cnc(NC(C)=O)s3)nc(-c3cnccn3)n2)c(Cl)c1` , what is its reported IC50? > 30 µM

Given the compound `COC(=O)Nc1ncc(-c2cc(-c3c(C)cc(OC)cc3C)nc(-c3cnccn3)n2)s1` , what is its reported IC50? 11.9 µM

====

Listing of recorded log10(IC50) by entry.
# Assay target: LIM domain kinase 1 (Homo sapiens, UniProt P53667)
# Sequence (P53667 whole entry, the tested form may be a part): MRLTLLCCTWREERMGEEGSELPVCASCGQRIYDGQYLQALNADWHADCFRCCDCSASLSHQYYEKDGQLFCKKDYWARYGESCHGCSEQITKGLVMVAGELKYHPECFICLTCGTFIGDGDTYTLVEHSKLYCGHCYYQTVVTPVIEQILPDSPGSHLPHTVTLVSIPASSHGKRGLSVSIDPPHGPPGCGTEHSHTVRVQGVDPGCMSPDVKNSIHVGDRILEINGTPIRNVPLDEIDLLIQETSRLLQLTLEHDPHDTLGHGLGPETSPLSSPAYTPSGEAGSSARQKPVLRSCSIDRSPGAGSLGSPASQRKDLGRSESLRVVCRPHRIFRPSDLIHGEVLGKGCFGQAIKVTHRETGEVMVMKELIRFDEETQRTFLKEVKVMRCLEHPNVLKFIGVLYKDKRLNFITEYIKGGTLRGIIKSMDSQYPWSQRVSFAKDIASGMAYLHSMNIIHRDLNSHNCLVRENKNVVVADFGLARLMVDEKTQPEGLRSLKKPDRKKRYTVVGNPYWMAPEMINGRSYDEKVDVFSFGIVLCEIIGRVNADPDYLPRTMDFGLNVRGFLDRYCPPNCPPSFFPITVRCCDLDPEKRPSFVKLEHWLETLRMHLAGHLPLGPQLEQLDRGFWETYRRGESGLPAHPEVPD
Short version: log10 scale, IC50, nM.

Worked cases, answers included:
CCOc1ccc(-c2cc(-c3cnc(NC(C)C)s3)nc(-c3ccccn3)n2)c(Cl)c1
2.69
CNC(=O)Nc1ncc(-c2cc(-c3c(Cl)cc(OC)cc3Cl)nc(-c3cnccn3)n2)s1
1.51

Request body: readout log10(IC50), system LIM domain kinase 1 (Homo sapiens, UniProt P53667), query `CCCNc1ncc(-c2cc(-c3ccc(O)cc3Cl)nc(-c3cnccn3)n2)s1` . Return the value. 3.89

Request body: readout log10(IC50), system LIM domain kinase 1 (Homo sapiens, UniProt P53667), query `COC(=O)Nc1ncc(-c2cc(-c3c(C)cc(OC)cc3C)nc(-c3cnccn3)n2)s1` . Return the value. 2.45

Request body: readout log10(IC50), system LIM domain kinase 1 (Homo sapiens, UniProt P53667), query `CCC(CC)Oc1cc(C)c(-c2cc(-c3cnc(NC(C)=O)s3)nc(-c3cnccn3)n2)c(C)c1` . Return the value. 1.81

Request body: readout log10(IC50), system LIM domain kinase 1 (Homo sapiens, UniProt P53667), query `CCCNc1ncc(-c2cc(-c3ccc(OC)cc3Cl)nc(-c3cnccn3)n2)s1` . Return the value. 3.22

Request body: readout log10(IC50), system LIM domain kinase 1 (Homo sapiens, UniProt P53667), query `CCOc1ccc(-c2cc(-c3cnc(NC(C)C)s3)nc(-c3cnccn3)n2)c(Cl)c1` . Return the value. 2.57

Request body: readout log10(IC50), system LIM domain kinase 1 (Homo sapiens, UniProt P53667), query `CCCNc1ncc(-c2cc(-c3ccc(OC4CCCC4)cc3Cl)nc(-c3cnccn3)n2)s1` . Return the value. 2.32

Request body: readout log10(IC50), system LIM domain kinase 1 (Homo sapiens, UniProt P53667), query `CCCNc1ncc(-c2cc(-c3c(Cl)cc(OC)cc3Cl)nc(-c3cnccn3)n2)s1` . Return the value. 1.58

Request body: readout log10(IC50), system LIM domain kinase 1 (Homo sapiens, UniProt P53667), query `CCCCCOc1ccc(-c2cc(-c3cnc(NCCC)s3)nc(-c3cnccn3)n2)c(Cl)c1` . Return the value. 2.65

Request body: readout log10(IC50), system LIM domain kinase 1 (Homo sapiens, UniProt P53667), query `CCNC(=O)Nc1ncc(-c2cc(-c3c(C)cc(OC)cc3C)nc(-c3cnccn3)n2)s1` . Return the value. 1.76

====

# Assay target: Dual specificity testis-specific protein kinase 2 (Homo sapiens)
# Sequence (Q96S53 whole entry): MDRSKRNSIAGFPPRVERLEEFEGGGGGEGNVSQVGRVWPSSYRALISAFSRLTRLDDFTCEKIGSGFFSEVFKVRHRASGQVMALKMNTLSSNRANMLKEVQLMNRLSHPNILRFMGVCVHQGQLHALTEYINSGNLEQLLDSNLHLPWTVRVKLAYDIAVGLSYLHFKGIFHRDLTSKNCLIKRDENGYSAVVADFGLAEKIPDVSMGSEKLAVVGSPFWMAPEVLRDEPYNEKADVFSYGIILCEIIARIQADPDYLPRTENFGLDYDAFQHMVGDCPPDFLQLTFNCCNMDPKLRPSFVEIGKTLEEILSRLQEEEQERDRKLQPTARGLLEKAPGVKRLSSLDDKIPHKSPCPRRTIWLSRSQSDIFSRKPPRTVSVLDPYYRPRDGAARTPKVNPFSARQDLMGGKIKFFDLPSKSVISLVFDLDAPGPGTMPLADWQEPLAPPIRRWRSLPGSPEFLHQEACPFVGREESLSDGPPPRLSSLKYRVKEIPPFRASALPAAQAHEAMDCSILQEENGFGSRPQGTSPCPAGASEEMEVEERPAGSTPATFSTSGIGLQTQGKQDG
# Assay procedure: Inhibition of TESK2
Listing of recorded IC50 by entry.
The reply should be a number in µM, with the unit left off.

CCC(CC)Oc1cc(C)c(-c2cc(-c3cnc(NC(C)=O)s3)nc(-c3cnccn3)n2)c(C)c1
2.01
CCNC(=O)Nc1ncc(-c2cc(-c3c(C)cc(OC)cc3C)nc(-c3cnccn3)n2)s1
0.252
CCC(CC)Oc1cc(C)c(-c2cc(-c3cnc(NC(=O)NC)s3)nc(-c3cnccn3)n2)c(C)c1
0.415

Then there is this compound:
Given the compound `COc1cc(C)c(-c2cc(-c3cnc(NC(C)=O)s3)nc(-c3cnccn3)n2)c(C)c1` , what is its reported IC50? 0.612

====

# Assay target: LIM domain kinase 2 (Homo sapiens, UniProt P53671)
# Sequence (P53671 whole entry, the tested form may be a part): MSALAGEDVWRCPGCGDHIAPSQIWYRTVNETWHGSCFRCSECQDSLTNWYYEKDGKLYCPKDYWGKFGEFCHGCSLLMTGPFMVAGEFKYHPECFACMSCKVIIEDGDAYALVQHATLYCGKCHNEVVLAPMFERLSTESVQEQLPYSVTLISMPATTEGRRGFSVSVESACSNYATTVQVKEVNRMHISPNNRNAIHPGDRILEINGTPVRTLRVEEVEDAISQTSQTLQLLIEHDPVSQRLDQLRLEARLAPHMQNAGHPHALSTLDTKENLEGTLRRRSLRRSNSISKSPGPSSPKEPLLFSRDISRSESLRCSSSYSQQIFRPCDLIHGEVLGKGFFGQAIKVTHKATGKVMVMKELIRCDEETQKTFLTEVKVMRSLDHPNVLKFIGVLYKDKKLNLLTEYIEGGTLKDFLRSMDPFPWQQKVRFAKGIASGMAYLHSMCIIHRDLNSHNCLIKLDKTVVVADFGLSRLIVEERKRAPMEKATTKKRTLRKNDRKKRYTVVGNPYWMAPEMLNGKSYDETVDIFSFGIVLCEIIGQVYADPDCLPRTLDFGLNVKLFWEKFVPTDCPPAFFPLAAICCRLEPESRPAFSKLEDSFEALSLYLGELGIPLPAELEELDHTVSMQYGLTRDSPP
Listing of recorded IC50 by entry.
The reply should be a number in nM, with the unit left off.

CCC(CC)Oc1cc(C)c(-c2cc(-c3cnc(NC(=O)C(C)C)s3)nc(-c3cnccn3)n2)c(C)c1
245
CCCNc1ncc(-c2cc(-c3c(Cl)cc(OCCC)cc3Cl)nc(-c3cnccn3)n2)s1
141
CCC(CC)Oc1cc(C)c(-c2cc(-c3cnc(NC(C)=O)s3)nc(-c3cnccn3)n2)c(C)c1
311
COC(=O)Nc1ncc(-c2cc(-c3c(C)cc(OC)cc3C)nc(-c3cnccn3)n2)s1
202

Then there is this molecule:
Given the molecule `CCC(CC)Oc1cc(C)c(-c2cc(-c3cnc(NC(=O)NC)s3)nc(-c3cnccn3)n2)c(C)c1` , what is its reported IC50? 173

====

# Assay target: Mitogen-activated protein kinase 14 (Homo sapiens, UniProt Q16539)
# Sequence (Q16539 whole entry): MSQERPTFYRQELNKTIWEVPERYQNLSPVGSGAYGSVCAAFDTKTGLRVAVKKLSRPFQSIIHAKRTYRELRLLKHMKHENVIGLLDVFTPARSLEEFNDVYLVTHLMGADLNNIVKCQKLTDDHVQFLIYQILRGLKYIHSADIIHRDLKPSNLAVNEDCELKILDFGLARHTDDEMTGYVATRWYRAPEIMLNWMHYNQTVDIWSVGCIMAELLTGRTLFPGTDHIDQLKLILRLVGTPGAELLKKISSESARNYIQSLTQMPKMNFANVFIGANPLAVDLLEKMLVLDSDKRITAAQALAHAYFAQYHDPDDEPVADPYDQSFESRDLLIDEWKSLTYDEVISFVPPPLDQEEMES
# Assay procedure: Inhibition of MAPK p38alpha
Listing of recorded pIC50 by entry.
// pIC50 is dimensionless: -log10 of concentration (M)

Worked cases, answers included:
CCOc1ccc(-c2cc(-c3cnc(NC(C)C)s3)nc(-c3cnccn3)n2)c(Cl)c1
5.70
CCOc1ccc(-c2cc(-c3cnc(NC(C)C)s3)nc(-c3ccccc3F)n2)c(Cl)c1
6.23

Then there is this compound:
Given the compound `CCOc1ccc(-c2cc(-c3cnc(NC(C)C)s3)nc(-c3ccccn3)n2)c(Cl)c1` , what is its reported pIC50? 5.40

====

Listing of recorded IC50 by entry.
# Assay target: LIM domain kinase 2 (Homo sapiens, UniProt P53671)
The reply should be a number in µM, with the unit left off.

CCCNc1ncc(-c2cc(-c3cc(OC)ccc3Cl)nc(-c3cnccn3)n2)s1
0.76
CCCNc1ncc(-c2cc(-c3ccc(OC)cc3Cl)nc(-c3cnccn3)n2)s1
1.23
CCC(CC)Oc1cc(C)c(-c2cc(-c3cnc(NC(=O)OC)s3)nc(-c3cnccn3)n2)c(C)c1
0.382

Given the molecule `CCCNc1ncc(-c2cc(-c3c(Cl)cc(OC4CCCC4)cc3Cl)nc(-c3cnccn3)n2)s1` , what is its reported IC50? 0.81

Given the molecule `CCCNc1ncc(-c2cc(-c3c(Cl)cc(OC(CC)CC)cc3Cl)nc(-c3cnccn3)n2)s1` , what is its reported IC50? 1.53
